System: UniProt:P12527 | Read-out: pIC50 | Origin: multiple publications
subject of test: UniProt:P12527
Sequence (P12527 whole entry): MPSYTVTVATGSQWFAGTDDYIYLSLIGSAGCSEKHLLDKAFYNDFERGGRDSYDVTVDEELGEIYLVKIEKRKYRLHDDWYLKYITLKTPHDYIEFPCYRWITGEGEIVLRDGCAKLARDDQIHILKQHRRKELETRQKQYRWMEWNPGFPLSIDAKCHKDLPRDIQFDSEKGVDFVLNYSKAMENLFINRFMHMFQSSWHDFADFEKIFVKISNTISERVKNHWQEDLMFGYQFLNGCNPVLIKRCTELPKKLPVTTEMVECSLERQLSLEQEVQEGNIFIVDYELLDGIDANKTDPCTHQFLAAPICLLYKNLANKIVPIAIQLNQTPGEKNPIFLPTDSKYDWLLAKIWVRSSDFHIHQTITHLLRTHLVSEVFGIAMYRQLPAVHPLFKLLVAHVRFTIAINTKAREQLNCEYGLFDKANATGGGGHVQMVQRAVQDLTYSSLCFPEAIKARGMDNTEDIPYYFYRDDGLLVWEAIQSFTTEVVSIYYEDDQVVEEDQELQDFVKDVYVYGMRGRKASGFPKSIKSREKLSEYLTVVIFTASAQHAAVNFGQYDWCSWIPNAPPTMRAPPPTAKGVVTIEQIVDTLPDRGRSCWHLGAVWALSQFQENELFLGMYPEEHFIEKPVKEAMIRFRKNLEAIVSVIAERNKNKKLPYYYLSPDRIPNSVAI
Expect pIC50 as a plain number equal to -log10 of the molar concentration.

                                   compound  subject_of_test  value_reported
0  CCCCC/C=C\C/C=C\C/C=C\C=C\C(N)CCCC(=O)O (stereo unspecified)   UniProt:P12527            4.60

Given CC1Cc2c(OCc3ccc(-c4ccccc4)cn3)ccc3c2c(c(CC(C)(C)C(=O)O)n3Cc2ccc(Cl)cc2)S1 (racemic) , state its recorded pIC50.
7.22

// repeat for O=C(CCCc1ccccc1)N(O)Cc1ccccc1 and report
6.82

// repeat for NC(=O)N(O)C1CCCc2ccccc21 (stereo unspecified) and report
4.54

// repeat for COCCC1CN(c2ccc(OC)cc2)NC1=O (stereo unspecified) and report
5.84

// repeat for Cc1cc(Nc2nc(-c3ccc(Cl)cc3)cs2)cc(C)c1O and report
6.90

// repeat for NC(=O)N(O)C1CCCc2c1ccc1ccccc21 (stereo unspecified) and report
5.25

// repeat for CCCN(O)C(=O)Cc1ccc(OCc2ccccc2)cc1 and report
7.00

* * *

System: UniProt:P12527 | Read-out: IC50 | Origin: multiple publications
Output: class label from IC50. Mapping: zone 1 = under 0.5 µM, zone 2 = from 0.5 µM up to 8 µM, zone 3 = 8 µM and over

>>> print(df.to_string())
                                   compound  label_class
0  CCOCC1CN(c2ccccc2)NC1=O (stereo not given)       zone 1
1  COC(=O)CC(=O)Nc1cccc(OCc2ccc3ccccc3c2)c1       zone 3
2  CCCCC/C=C\C/C=C\C/C=C\C=C\C1CCCC(=O)N1 (stereo not given)       zone 3

Class (by measured IC50) for CCCCC/C=C\C/C=C\C/C=C\C=C\C(CCCC(=O)O)CC(=O)NO (stereo not given)
zone 1

// repeat for CC(C)c1ccc2c(c1)CCC1[C@](C)(CNCc3ccccc3C(=O)O)CCC[C@]21C.Cl (stereo not given in full) and report
zone 3

// repeat for COC(=O)CCC(=O)N(C)c1cccc(OCc2ccc3ccccc3n2)c1 and report
zone 3
